// provenance: patent US6492128B1

- Subject Of Test: oncogenic Ras in isolated EJ cell membranes (Homo sapiens, UniProt P01112, G12V)
- Construct: expressed in transfected cells; host or cells: Rat1 fibroblasts transformed with Ha-Ras (EJ cells)
- Experiment: Cell-free assay: dislodging of Ras from isolated EJ cell membranes
- Format: biochemical, rat
- Recorded Conditions: 10 μM drug, isolated EJ cell membranes, Ras in pellet
Value Type: Dislodging of Ras (% of control) in a cell free system (10 μM drug)

Structure Smiles String	Result
CC(C)=CCC/C(C)=C/CC/C(C)=C/CSc1c(Cl)cccc1C(=O)O	109 % of control
CC(C)=CCCC(C)=CCCC(C)=CCSc1cc(Cl)ccc1C(=O)O	85 % of control
CC(C)=CCC/C(C)=C/CC/C(C)=C/CSc1ccc(Cl)cc1C(=O)O	87 % of control
CC(C)=CCC/C(C)=C/CSc1ccccc1C(=O)O	100 % of control
CC(C)=CCCC(C)=CCCC(C)=CCSc1ccccc1C(=O)O	56 % of control
COC(=O)c1ccccc1SCC=C(C)CCC=C(C)CCC=C(C)C	110 % of control
